# System: K24384-001-R-PDC complex spheroids, viability;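 also: spheroids exposed to compounds for seven days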
# assay_method_text: Anticancer human tumor K24384-001-R-PDC patient-derived pancreatic adenocarcinoma cell line growth inhibition [GQUAD]
# condition_parameters: second compound 10 µM; first compound 1 µM; hits give low values
Lab note: compare viability, T/C with 40%, writing label 1 if less and label 0 if equal or more.

- CC1COCCN1c1cc(C2(O)CC3CCC(C2)O3)c2cnn(-c3ccn[nH]3)c2n1 (stereo unspecified) + CN(C)c1ccc(Nc2c3ccc(NC(=O)CCN4CCCC4)cc3nc3cc(NC(=O)CCN4CCCC4)ccc23)cc1: label 1
- C=CCn1c(=O)c2cnc(Nc3ccc(N4CCN(C)CC4)cc3)nc2n1-c1cccc(C(C)(C)O)n1 + CN(C)c1ccc(Nc2c3ccc(NC(=O)CCN4CCCC4)cc3nc3cc(NC(=O)CCN4CCCC4)ccc23)cc1: label 1
- CC(C)(O)C1CCC(Nc2ccc3ncc(-c4cccc(C(F)(F)F)c4)n3n2)CC1 (stereo unspecified) + Cc1cnc(CNC(=O)c2c(=O)c3ccc(N4CCCN(C)CC4)nc3n3c2sc2ccccc23)cn1: label 1
- CC(=O)O[C@H]1C(=O)[C@@]2(C)[C@H]([C@H](OC(=O)c3ccccc3)[C@]3(O)C[C@H](OC(=O)[C@H](O)[C@@H](NC(=O)c4ccccc4)c4ccccc4)C(C)=C1C3(C)C)[C@]1(OC(C)=O)CO[C@@H]1C[C@@H]2O + Cc1cnc(CNC(=O)c2c(=O)c3ccc(N4CCCN(C)CC4)nc3n3c2sc2ccccc23)cn1: label 1
- O=c1[nH]cc(F)c(=O)[nH]1 + Cc1cnc(CNC(=O)c2c(=O)c3ccc(N4CCCN(C)CC4)nc3n3c2sc2ccccc23)cn1: label 1
- C#Cc1c(F)ccc2cc(O)cc(-c3ncc4c(N5CC6CCC(C5)N6)nc(OCC56CCCN5CC(F)C6)nc4c3F)c12 (stereo unspecified) + CN(C)c1ccc(Nc2c3ccc(NC(=O)CCN4CCCC4)cc3nc3cc(NC(=O)CCN4CCCC4)ccc23)cc1: label 0
- CCCS(=O)(=O)Nc1ccc(F)c(C(=O)c2c[nH]c3ncc(-c4ccc(Cl)cc4)cc23)c1F + Cc1[nH]c2ccc(F)cc2c1-c1nc2c3cccnc3c3ncccc3c2[nH]1: label 0
- COc1ccc([C@@H](O)c2cc(-c3ncnc4cc(N5CCOCC5)ccc34)c(F)cc2Cl)nn1 + Cc1[nH]c2ccc(F)cc2c1-c1nc2c3cccnc3c3ncccc3c2[nH]1: label 0
- C#Cc1c(F)ccc2cc(O)cc(-c3ncc4c(N5CC6CCC(C5)N6)nc(OCC56CCCN5CC(F)C6)nc4c3F)c12 (stereo unspecified) + Cc1cnc(CNC(=O)c2c(=O)c3ccc(N4CCCN(C)CC4)nc3n3c2sc2ccccc23)cn1: label 1
